assay: Drug transport (BBB permeability) in Caco-2 monolayer; format: in vitro ADME; settings: human; Caco-2 monolayer, 1 × 10^–4 M, 120 min
In this section, each of the compounds is paired with its reported Papp B→A at 120 min.
endpoint: Papp B→A at 120 min (×10⁻⁶ cm/s)

• NC(=O)[C@@H]1CCCCN1C(=O)c1nn(Cc2ccc(F)cc2)c2ccccc12 [18o] = 29
• NC(=O)[C@H]1CCCCN1C(=O)c1nn(Cc2ccc(F)cc2)c2ccccc12 [18p] = 21.9
• NC(=O)[C@H]1CCCCN1C(=O)c1cn(CC2CCCCC2)c2ccccc12 [18f] = 39.3
• NC(=O)[C@@H]1CCCCN1C(=O)c1cn(CC2CCCCC2)c2ccccc12 [18e] = 50.6

###

In this section, each of the compounds is paired with its reported log10 EC50.
biological target: CB2R (Homo sapiens); test: CB2R β-arrestin recruitment; format: cell-based; parameters: expressed in transfected cells; host or cells: HEK-293T, transient transfection (PEI)
endpoint: log10 EC50 (log10 of the value in nM)

* NC(=O)[C@H]1CCCCN1C(=O)c1cn(CC2CCCCC2)c2ccccc12 [18f] | -1.10
* NC(=O)[C@H]1CCCCN1C(=O)c1nn(Cc2ccc(F)cc2)c2ccccc12 [18p] | 2.51
* CCCCCn1nc(C(=O)N2CCCC[C@H]2C(=O)OC)c2ccccc21 [16i] | 0.04
* CCCCCn1nc(C(=O)N2CCCC[C@@H]2C(=O)OC)c2ccccc21 [16j] | -0.55
* NC(=O)[C@@H]1CCCCN1C(=O)c1cn(CC2CCCCC2)c2ccccc12 [18e] | -0.40
* CCCC(C)(C)c1ccc2c(c1)OC(C)(C)[C@@H]1CC=C(C)C[C@@H]21 [JWH-133, reference compound] | 0.13
* NC(=O)[C@@H]1CCCCN1C(=O)c1nn(Cc2ccc(F)cc2)c2ccccc12 [18o] | 1.78

###

target: CB2R (Homo sapiens, UniProt P34972); test: CB2R radioligand binding competition ([3H]CP55,940); set-up: expressed in transfected cells; host or cells: HEK-293T (HEK-CB2 cell line); conditions: selectivity index, affinity ratio
Sequence (P34972 whole entry): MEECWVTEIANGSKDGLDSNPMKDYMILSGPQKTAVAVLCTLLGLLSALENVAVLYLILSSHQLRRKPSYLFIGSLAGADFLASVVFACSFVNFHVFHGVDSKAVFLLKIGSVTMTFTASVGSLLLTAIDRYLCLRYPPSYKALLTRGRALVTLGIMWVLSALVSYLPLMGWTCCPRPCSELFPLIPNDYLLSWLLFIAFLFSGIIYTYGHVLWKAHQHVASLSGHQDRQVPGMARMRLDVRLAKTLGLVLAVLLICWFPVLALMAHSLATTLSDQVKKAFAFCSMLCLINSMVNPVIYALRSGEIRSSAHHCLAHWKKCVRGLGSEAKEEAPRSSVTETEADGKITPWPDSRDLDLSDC
In this section, each of the molecules is paired with its reported SI Ki CB1R/Ki CB2R.
endpoint: SI Ki CB1R/Ki CB2R

- COC(=O)[C@H]1CCCN1C(=O)c1cn(CC2CCCCC2)c2ccccc12 [15f]: >100
- COC(=O)[C@H]1CCCCN1C(=O)c1cn(CC2CCCCC2)c2ccccc12 [16f]: >100
- COC(=O)[C@H]1CCCN1C(=O)c1nn(CC2CCCCC2)c2ccccc12 [15n]: >100
- NC(=O)[C@@H]1CCCCN1C(=O)c1nn(Cc2ccc(F)cc2)c2ccccc12 [18o]: >100
- COC(=O)[C@@H]1CCCN1C(=O)c1cn(CCCCCF)c2ccccc12 [15c]: 0.8

###

target: CB2R (Homo sapiens); test: Signaling bias quantification (relative activity model, JWH-133 reference); assay type: cell-based; design: expressed in transfected cells; host or cells: HEK-293T, transient transfection (PEI); conditions: in parentheses
endpoint: Preferred (biased) pathway β-arrestin – cAMP

* NC(=O)[C@@H]1CCCCN1C(=O)c1nn(Cc2ccc(F)cc2)c2ccccc12 [18o] | G protein
* CCCCCn1nc(C(=O)N2CCCC[C@H]2C(=O)OC)c2ccccc21 [16i] | G protein
* NC(=O)[C@@H]1CCCCN1C(=O)c1cn(CC2CCCCC2)c2ccccc12 [18e] | β-arrestin
* CCCCCn1nc(C(=O)N2CCCC[C@@H]2C(=O)OC)c2ccccc21 [16j] | G protein
* NC(=O)[C@H]1CCCCN1C(=O)c1nn(Cc2ccc(F)cc2)c2ccccc12 [18p] | G protein
* NC(=O)[C@H]1CCCCN1C(=O)c1cn(CC2CCCCC2)c2ccccc12 [18f] | β-arrestin
